- tested on: FLJ20589 clone-derived protein (human hippocalcin-like protein 1, VILIP-3) (Homo sapiens, UniProt P37235)
- Construct: A human full-length cDNA clone was expressed as a protein with an N-terminal His tag; His tag (N); made in house; host or cells: Escherichia coli BL21star(DE3)pLysS (pDEST17 Gateway expression plasmid)
- assay info: SEC/MS interaction analysis (size exclusion spin column and mass analysis) with FLJ20589 clone-derived protein
- Assay type: binding
- experimental setup: protein 0 μM (protein-free reference), compound 100 μM
endpoint label: spectral intensity of the compound in the SEC spin column filtrate (protein fraction)
# answer = number (no unit)

Look over these answered cases.
[
  {
    "molecule": "O=C1CN=C(c2ccccc2)c2cc(Cl)ccc2N1CC1CC1 [prazepam]",
    "numeric result": 5911478
  },
  {
    "molecule": "c1ccc(-c2ccc(C(c3ccccc3)n3ccnc3)cc2)cc1 (stereo not shown) [Bifonazole]",
    "numeric result": 2558136
  },
  {
    "molecule": "CN1CCN(CCCN2c3ccccc3Sc3ccc(C(F)(F)F)cc32)CC1 [Trifluoperazine]",
    "numeric result": 2266965
  }
]

### Prompt For Fc1ccc(C(c2ccc(F)cc2)N2CCN(C/C=C/c3ccccc3)CC2)cc1 [Flunarizine] , write its spectral intensity of the compound in the SEC spin column filtrate (protein fraction).
### Response 198757

* * *

- tested on: FLJ39196 clone-derived protein (human neurocalcin δ) (Homo sapiens, UniProt P61601)
- Construct: A human full-length cDNA clone was expressed as a protein with an N-terminal His tag; His tag (N); made in house; host or cells: Escherichia coli BL21star(DE3)pLysS (pDEST17 Gateway expression plasmid)
- assay info: SEC/MS interaction analysis (size exclusion spin column and mass analysis) with FLJ39196 clone-derived protein
- Format: binding
- experimental setup: protein 0 μM (protein-free reference), compound 10 μM
Attribute: spectral intensity of the compound in the SEC spin column filtrate (protein fraction)
# answer = number (no unit)

Look over these answered cases.
[
  {
    "compound": "c1ccc(-c2ccc(C(c3ccccc3)n3ccnc3)cc2)cc1 (centres unmarked) [Bifonazole]",
    "tested on": "FLJ39196 clone-derived protein (human neurocalcin δ) (Homo sapiens, UniProt P61601)",
    "numeric result": 34579053
  },
  {
    "compound": "CCc1oc2ccccc2c1C(=O)c1cc(Br)c(O)c(Br)c1 [Benzbromarone]",
    "tested on": "FLJ39196 clone-derived protein (human neurocalcin δ) (Homo sapiens, UniProt P61601)",
    "numeric result": 300847
  },
  {
    "compound": "CC(C)/N=c1\\cc2n(-c3ccc(Cl)cc3)c3ccccc3nc-2cc1Nc1ccc(Cl)cc1 [clofazimine]",
    "tested on": "FLJ39196 clone-derived protein (human neurocalcin δ) (Homo sapiens, UniProt P61601)",
    "numeric result": 3306068
  },
  {
    "compound": "C[C@]12Cc3c[nH]nc3C[C@@H]1CC[C@@H]1[C@@H]2CC[C@@]2(C)[C@H]1CC[C@]2(C)O [stanozolol]",
    "tested on": "FLJ39196 clone-derived protein (human neurocalcin δ) (Homo sapiens, UniProt P61601)",
    "numeric result": 2749518
  }
]

### Prompt For CN1CCC(=C2c3ccccc3Sc3ccccc32)CC1 [Pimethixene] , write its spectral intensity of the compound in the SEC spin column filtrate (protein fraction).
### Response 4868887

* * *

- tested on: FLJ39196 clone-derived protein (human neurocalcin δ) (Homo sapiens)
- Construct: A human full-length cDNA clone was expressed as a protein with an N-terminal His tag; His tag (N); made in house; host or cells: Escherichia coli BL21star(DE3)pLysS (pDEST17 Gateway expression plasmid)
- assay info: SEC/MS interaction analysis (size exclusion spin column and mass analysis) with FLJ39196 clone-derived protein
- Format: binding
- experimental setup: protein 47.5 μM, compound 1 μM
Counter-ions that a name gives are not always drawn.
endpoint label: spectral intensity of the compound in the SEC spin column filtrate (protein fraction)
# answer = number (no unit)

Look over these answered cases.
[
  {
    "molecule": "CCCCCCCCNC(C)C(O)c1ccc(SC(C)C)cc1 (stereo not drawn)",
    "numeric result": 5977944
  },
  {
    "molecule": "CC(O)(CS(=O)(=O)c1ccc(F)cc1)C(=O)Nc1ccc(C#N)c(C(F)(F)F)c1 (stereo not drawn) [Bicaltamide]",
    "numeric result": 390946
  },
  {
    "molecule": "C[C@]12Cc3c[nH]nc3C[C@@H]1CC[C@@H]1[C@@H]2CC[C@@]2(C)[C@H]1CC[C@]2(C)O",
    "numeric result": 3989532
  },
  {
    "molecule": "O=C1CN=C(c2ccccc2)c2cc(Cl)ccc2N1CC1CC1",
    "numeric result": 26479402
  },
  {
    "molecule": "Cc1cc(-c2ccccc2)nnc1NCCN1CCOCC1",
    "numeric result": 10185140
  }
]

### Prompt For `CN(C)CC/C=C1/c2ccccc2Sc2ccc(Cl)cc21` , write its spectral intensity of the compound in the SEC spin column filtrate (protein fraction).
### Response 25013147

### Prompt For CC(NCCC(c1ccccc1)c1ccccc1)c1ccccc1 (stereo not drawn) , write its spectral intensity of the compound in the SEC spin column filtrate (protein fraction).
### Response 24572438

### Prompt For `CN1CCN(CCCN2c3ccccc3Sc3ccc(C(F)(F)F)cc32)CC1` , write its spectral intensity of the compound in the SEC spin column filtrate (protein fraction).
### Response 7231665

### Prompt For `COC(=O)[C@H]1[C@H]2C[C@@H]3c4[nH]c5cc(OC)ccc5c4CCN3C[C@H]2C[C@@H](OC(=O)/C=C/c2cc(OC)c(OC)c(OC)c2)[C@@H]1OC` , write its spectral intensity of the compound in the SEC spin column filtrate (protein fraction).
### Response 17653515

### Prompt For CC(C)[C@@]1(NC(=O)[C@@H]2C[C@@H]3c4cccc5[nH]cc(c45)C[C@H]3N(C)C2)O[C@@]2(O)[C@@H]3CCCN3C(=O)[C@H](Cc3ccccc3)N2C1=O [Dihydroergocristine] , write its spectral intensity of the compound in the SEC spin column filtrate (protein fraction).
### Response 95970671

### Prompt For O=C(c1ccc(OCCN2CCCCC2)cc1)c1c(-c2ccc(O)cc2)sc2cc(O)ccc12 [Raloxifene hydrochloride] , write its spectral intensity of the compound in the SEC spin column filtrate (protein fraction).
### Response 3014448

* * *

- tested on: FLJ20589 clone-derived protein (human hippocalcin-like protein 1, VILIP-3) (Homo sapiens)
- Construct: A human full-length cDNA clone was expressed as a protein with an N-terminal His tag; His tag (N); made in house; host or cells: Escherichia coli BL21star(DE3)pLysS (pDEST17 Gateway expression plasmid)
- assay info: SEC/MS interaction analysis (size exclusion spin column and mass analysis) with FLJ20589 clone-derived protein
- Format: binding
- experimental setup: protein 23.75 μM, compound 100 μM
endpoint label: spectral intensity of the compound in the SEC spin column filtrate (protein fraction)
# answer = number (no unit)

Look over these answered cases.
[
  {
    "compound": "c1ccc(-c2ccc(C(c3ccccc3)n3ccnc3)cc2)cc1 (stereo not shown) [Bifonazole]",
    "numeric result": 3826699
  },
  {
    "compound": "Fc1ccc(C(c2ccc(F)cc2)N2CCN(C/C=C/c3ccccc3)CC2)cc1 [Flunarizine]",
    "numeric result": 181386
  },
  {
    "compound": "O=C1CN=C(c2ccccc2)c2cc(Cl)ccc2N1CC1CC1 [prazepam]",
    "numeric result": 27662748
  }
]

Turning now to a further compound:
### Prompt For CN1CCN(CCCN2c3ccccc3Sc3ccc(C(F)(F)F)cc32)CC1 [Trifluoperazine] , write its spectral intensity of the compound in the SEC spin column filtrate (protein fraction).
### Response 41947038

* * *

- tested on: FLJ39196 clone-derived protein (human neurocalcin δ) (Homo sapiens, UniProt P61601)
- Construct: A human full-length cDNA clone was expressed as a protein with an N-terminal His tag; His tag (N); made in house; host or cells: Escherichia coli BL21star(DE3)pLysS (pDEST17 Gateway expression plasmid)
- assay info: SEC/MS interaction analysis (size exclusion spin column and mass analysis) with FLJ39196 clone-derived protein
- Assay type: binding
- experimental setup: protein 47.5 μM, compound 10 μM
Structures can show the parent of a compound that is named as a salt.
Attribute: spectral intensity of the compound in the SEC spin column filtrate (protein fraction)
# answer = number (no unit)

Look over these answered cases.
[
  {
    "molecule": "CCOC(=O)Oc1c(OC)cc(C(=O)O[C@@H]2C[C@@H]3CN4CCc5c([nH]c6cc(OC)ccc56)[C@H]4C[C@@H]3[C@H](C(=O)OC)[C@H]2OC)cc1OC",
    "numeric result": 105524442
  },
  {
    "molecule": "Clc1ccc(C(OCCN2CCCCC2)c2ccccc2)cc1 (centres unmarked)",
    "numeric result": 18612563
  },
  {
    "molecule": "CN1CCN(CCCN2c3ccccc3Sc3ccc(C(F)(F)F)cc32)CC1",
    "numeric result": 14142338
  },
  {
    "molecule": "CCc1oc2ccccc2c1C(=O)c1cc(Br)c(O)c(Br)c1",
    "numeric result": 1942184
  },
  {
    "molecule": "CC(C)[C@@]1(NC(=O)[C@@H]2C[C@@H]3c4cccc5[nH]cc(c45)C[C@H]3N(C)C2)O[C@@]2(O)[C@@H]3CCCN3C(=O)[C@H](Cc3ccccc3)N2C1=O [Dihydroergocristine]",
    "numeric result": 593118709
  }
]

### Prompt Fill: spectral intensity of the compound in the SEC spin column filtrate (protein fraction) (FLJ39196 clone-derived protein (human neurocalcin δ) (Homo sapiens, UniProt P61601)) for this molecule `CCc1cc2c(s1)N(C)C(=O)CN=C2c1ccccc1Cl`
### Response 60448900

### Prompt Fill: spectral intensity of the compound in the SEC spin column filtrate (protein fraction) (FLJ39196 clone-derived protein (human neurocalcin δ) (Homo sapiens, UniProt P61601)) for this molecule O=C(c1ccc(OCCN2CCCCC2)cc1)c1c(-c2ccc(O)cc2)sc2cc(O)ccc12 [Raloxifene hydrochloride]
### Response 17385466

### Prompt Fill: spectral intensity of the compound in the SEC spin column filtrate (protein fraction) (FLJ39196 clone-derived protein (human neurocalcin δ) (Homo sapiens, UniProt P61601)) for this molecule OCCN1CCN(CC/C=C2/c3ccccc3Sc3ccc(C(F)(F)F)cc32)CC1 [Flupentixol cis-(Z)]
### Response 82852252

### Prompt Fill: spectral intensity of the compound in the SEC spin column filtrate (protein fraction) (FLJ39196 clone-derived protein (human neurocalcin δ) (Homo sapiens, UniProt P61601)) for this molecule `CC(C)/N=c1\cc2n(-c3ccc(Cl)cc3)c3ccccc3nc-2cc1Nc1ccc(Cl)cc1`
### Response 57730302

### Prompt Fill: spectral intensity of the compound in the SEC spin column filtrate (protein fraction) (FLJ39196 clone-derived protein (human neurocalcin δ) (Homo sapiens, UniProt P61601)) for this molecule CC(C)COCC(CN(Cc1ccccc1)c1ccccc1)N1CCCC1 (centres unmarked)
### Response 40680909

### Prompt Fill: spectral intensity of the compound in the SEC spin column filtrate (protein fraction) (FLJ39196 clone-derived protein (human neurocalcin δ) (Homo sapiens, UniProt P61601)) for this molecule `O=C1CN=C(c2ccccc2)c2cc(Cl)ccc2N1CC1CC1`
### Response 67670753
